Data provenance is PubChem BioAssay (NCI).

# System: KM12 colon
# procedure-text: NCI-60 one-dose screen, 48 h
# condition-notes: 10 µM unless noted
This is part of a sample that, as a whole, favours compounds with a hit. Of some 83,000 tested, about 20% had one in any assay. Active and inactive are the calls of the source. The calls were made as follows: active = growth percent below 10; inactive = the rest.
The reply should be one of these categories: 1.0 (active), 0.0 (inactive)

Query: Write down the call the test reported for this compound. Item: Cc1ccc(C(=O)Nc2cc(-c3ccncc3)cc(C(F)(F)F)c2)cc1C#Cc1cnc2cccnn12
Reply: 0.0

Query: Identify the outcome logged in this assay for the compound shown: N#CCc1nnc(NC(=O)c2ccc(-n3c(=O)[nH]c4ccccc4c3=O)cc2)s1
Reply: 0.0

Query: State the result this test recorded for Cn1cc(-c2cc(N)n3nc(-c4c[nH]c5ccccc45)cc3n2)c2ccccc21 .
Reply: 1.0

Query: Tell me the assay call for c1ccc(CSc2nnc(-c3ccc4nc(-c5ccccc5)[nH]c4c3)o2)cc1 please.
Reply: 0.0

Query: Please indicate how the test categorized Cc1nn(-c2ccccc2)c2nc(C)n(C(=O)N/N=C/c3ccccc3)c(=O)c12 .
Reply: 0.0

Query: Could you check what this test reported for COc1ccc2[nH]cc(-c3cc4nc(-c5cn(C)c6ncc(Br)cc56)cc(N)n4n3)c2c1 ?
Reply: 1.0

Query: Outcome logged for Clc1ccc2c(NCCNC34CC5CC(CC(C5)C3)C4)ccnc2c1 in this assay:
Reply: 1.0

Query: Please share the test call associated with C=CCSc1nnc(-c2c(C)nc3sccn23)o1 .
Reply: 0.0

Query: Can you look up the reported call for CCC1(OC(=O)c2ccccc2SSCCOC(=O)CCCCC2SCC3NC(=O)NC32)C(=O)OCc2c1cc1n(c2=O)Cc2cc3ccccc3nc2-1 (configuration not stated) for me?
Reply: 0.0

Query: Given O=C1CCC(N2C(=O)c3cccc(NCCCCCC(=O)N4CCN(c5ccc6nc7c(nc6c5C(F)(F)F)C(=O)c5ncccc5C7=O)CC4)c3C2=O)C(=O)N1 (configuration not stated) , state the outcome it received in this test.
Reply: 1.0

Query: Field: outcome | Entry: Cc1cc(C)c2[nH]c(=O)c(C(c3nnnn3Cc3ccc4c(c3)OCO4)N3CCN(C)CC3)cc2c1 (configuration not stated)
Reply: 0.0

Query: Name the outcome recorded for Cc1ccc2nc(COc3ccc(C(=O)NNC(=O)Nc4ccc(Cl)c(C(F)(F)F)c4)cc3)[nH]c2c1 in the assay.
Reply: 0.0
